assay: Drug uptake in Hartley guinea pig cerebrospinal fluid at 90 mg/kg, po after 4 hrs post dosing; type: ADME, organism-based, Cavia porcellus; parameters: dose 90 mg/kg, route oral; details: read-out: Drug uptake
propertyMeasured: concentration at 4 h (nM)
Write down the numeric answer in nM and omit the unit.

Record "Cc1cn(-c2ccc3n(c2=O)CCN(CCOc2ccc(Cl)cc2C(F)(F)F)C3=O)cn1" . Reported concentration at 4 h: 239

====

assay: Apparent intrinsic clearance in rat liver microsomes; format: ADME; conditions: read-out: CLH(app)
propertyMeasured: CLint scaled

The cases that follow already have their CLint scaled on record.
Cc1cn(-c2ccc3n(c2=O)CCN(CCOc2ccccc2C(F)(F)F)C3=O)cn1    97 mL/min/kg
Cc1cn(-c2ccc3n(c2=O)CCN(CCOc2ccc(C(F)(F)F)cc2)C3=O)cn1    40.3 mL/min/kg
Cc1cn(-c2ccc3n(c2=O)CCN(CCOc2ccc(F)cc2C(F)(F)F)C3=O)cn1    44.1 mL/min/kg
Cc1cn(-c2ccc3n(c2=O)CCN(Cc2cccc(C(F)(F)F)c2)C3=O)cn1    < 25.4 mL/min/kg

// moving on: another record for CLint scaled
CLint scaled reading for "Cc1cn(-c2ccc3n(c2=O)CCN(CCOc2cccc(C(F)(F)F)c2)C3=O)cn1" : 79.4 mL/min/kg

====

assay: Drug uptake in Hartley guinea pig cerebrospinal fluid at 10 mg/kg, po after 4 hrs post dosing; format: ADME, organism-based, Cavia porcellus; design: dose 10 mg/kg, route oral; details: read-out: Drug uptake
propertyMeasured: concentration at 4 h (µM)
Kindly provide the numeric value in µM only, without the unit symbol.

Query "Cc1cn(-c2ccc3n(c2=O)CCN(CCOc2ccc(Cl)cc2C(F)(F)F)C3=O)cn1" yields concentration at 4 h of 0.0127

====

// values below are reported Vd
assay: Volume of distribution at steady state in rat at 1 mg/kg, iv; assay type: ADME, organism-based; set-up: dose 1 mg/kg, route intravenous; settings: in vivo, read-out: Vdss
Please respond with the number in L/kg and leave the unit unwritten.

Cc1cn(-c2ccc3n(c2=O)CCN(CCOc2ccc(F)cc2C(F)(F)F)C3=O)cn1    1.91

Lab note: next compound to report on.
Reported Vd for "Cc1cn(-c2ccc3n(c2=O)CCN(CCOc2ccc(Cl)cc2C(F)(F)F)C3=O)cn1" was 0.69

====

Let's look at some compounds and their measured Kp at 1 h.
experiment: Ratio of drug uptake in brain to plasma in rat at 5 mg/kg, po after 1 hr; type: ADME, organism-based; set-up: dose 5 mg/kg, route oral; conditions: read-out: BPR

Cc1cn(-c2ccc3n(c2=O)CCN(CCOc2ccc(Cl)cc2C(F)(F)F)C3=O)cn1    0.24

Let us examine a further case.
For this compound ( "Cc1cn(-c2ccc3n(c2=O)CCN(CCOc2ccc(F)cc2C(F)(F)F)C3=O)cn1" ), measured Kp at 1 h is 0.74

====

assay: Plasma concentration in Hartley guinea pig at 10 mg/kg, po after 4 hrs post dosing; type: ADME, organism-based, Cavia porcellus; parameters: dose 10 mg/kg, route oral
propertyMeasured: concentration at 4 h (nM)
Report the figure in nM without appending any unit label.

get_value(item= "Cc1cn(-c2ccc3n(c2=O)CCN(CCOc2ccc(Cl)cc2C(F)(F)F)C3=O)cn1" , readout=concentration at 4 h) returns 367

====

target: Gamma-secretase; test: Modulation of gamma-secretase (unknown origin) expressed in CHO cells overexpressing human wild type APP assessed as reduction of amyloid beta 42 level after 24 hrs by ELISA; assay type: cell-based
propertyMeasured: log10 of IC50 (log10 of the value in nM)
Lab note - IC50 converted to log10 from values in nM.

Consider the worked cases shown below.
Cc1cn(-c2ccc3c(=O)n(Cc4cccc(C(F)(F)F)c4)ccc3c2O)cn1    2.96
Cc1cn(-c2ccc3c(c2O)CCN(Cc2cccc(C(F)(F)F)c2)C3=O)cn1    2.60
Cc1cn(-c2ccc3n(c2=O)CCN(Cc2cccc(C(F)(F)F)c2)C3=O)cn1    3.21
COc1cc(C(=O)NCc2cccc(C(F)(F)F)c2)ccc1-n1cnc(C)c1    2.82
Cc1cn(-c2ccc3n(c2=O)CCN(CCOc2ccc(F)cc2C(F)(F)F)C3=O)cn1    2.40
Cc1cn(-c2ccc3n(c2=O)CCN(CCOc2cccc4ccc(F)cc24)C3=O)cn1    1.18

Turning now to a further record.
// sample "Cc1cn(-c2ccc3n(c2=O)CCN(CCOc2ccccc2C(F)(F)F)C3=O)cn1" , its log10 of IC50 was 2.49

====

molecular target: Cytochrome P450 3A4 (Homo sapiens)
Sequence (P08684 whole entry): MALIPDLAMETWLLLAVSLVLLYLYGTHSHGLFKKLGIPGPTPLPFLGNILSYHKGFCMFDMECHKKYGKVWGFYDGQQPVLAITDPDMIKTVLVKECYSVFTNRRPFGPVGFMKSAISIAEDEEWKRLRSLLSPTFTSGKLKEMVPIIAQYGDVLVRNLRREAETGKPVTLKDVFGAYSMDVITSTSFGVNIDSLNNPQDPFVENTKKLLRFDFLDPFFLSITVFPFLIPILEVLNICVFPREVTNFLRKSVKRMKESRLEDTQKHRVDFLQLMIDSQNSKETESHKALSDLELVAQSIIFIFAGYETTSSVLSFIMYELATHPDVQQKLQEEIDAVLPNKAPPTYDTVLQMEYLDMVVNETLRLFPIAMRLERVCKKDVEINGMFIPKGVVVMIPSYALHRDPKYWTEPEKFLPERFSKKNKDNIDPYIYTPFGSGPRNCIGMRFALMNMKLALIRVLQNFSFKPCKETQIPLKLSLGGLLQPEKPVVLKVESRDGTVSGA
propertyMeasured: IC50

GET /value?item= "Cc1cn(-c2ccc3n(c2=O)CCN(CCOc2ccc(Cl)cc2C(F)(F)F)C3=O)cn1" &field=IC50 returns > 30 µM

====

assay: Apparent intrinsic clearance in human liver microsomes; assay type: ADME; conditions: read-out: CLH(app)
propertyMeasured: CLint scaled

Form field CLint scaled, entry "Cc1cn(-c2ccc3n(c2=O)CCN(CCOc2cccc(C(F)(F)F)c2)C3=O)cn1" : < 8 mL/min/kg

====

system: MDR1 (human); experiment: Efflux ratio of permeability in MDCK cells expressing human MDR1; assay type: ADME, cell-based, Canis lupus familiaris; conditions: dog
propertyMeasured: efflux ratio
Output: the number by itself.

Record excerpt, results attached:
Cc1cn(-c2ccc3n(c2=O)CCN(CCOc2ccccc2C(F)(F)F)C3=O)cn1    1.5
Cc1cn(-c2ccc3n(c2=O)CCN(CCOc2ccc(F)cc2C(F)(F)F)C3=O)cn1    1.5

Now for a further compound.
Note to self: efflux ratio recorded for "Cc1cn(-c2ccc3n(c2=O)CCN(CCOc2ccc(C(F)(F)F)cc2)C3=O)cn1" was 1.5

====

target: Gamma-secretase; assay: Modulation of gamma-secretase (unknown origin) expressed in CHO cells overexpressing human wild type APP assessed as reduction of amyloid beta 42 level after 24 hrs by ELISA; assay type: cell-based
pIC50: −log10 of the molar value.
Assign class 1 to entries whose pIC50 meets or exceeds 6; assign class 0 to the rest.

A selection of reference data follows.
Cc1cn(-c2ccc3n(c2=O)CCN(CCOc2cccc(C(F)(F)F)c2)C3=O)cn1    class 1
COc1cc2c(=O)n(CCc3cccc(Cl)c3)ccc2cc1-n1cnc(C)c1    class 0
Cc1cn(-c2ccc3n(c2=O)CCN(CCOc2ccc(Cl)cc2C(F)(F)F)C3=O)cn1    class 1
COc1c(-n2cnc(C)c2)ccc2c(=O)n(CCc3cccc(Cl)c3)ccc12    class 0

Kindly consider the entry below.
# bool: pIC50 of "Cc1cn(-c2ccc3n(c2=O)CCN(CC2(c4ccc(Cl)cc4)CC2)C3=O)cn1" >= 6 class 1

====

experiment: Apparent intrinsic clearance in human liver microsomes; assay type: ADME; settings: read-out: CLH(app)
// values below are reported CLint scaled

Answered examples (3):
Cc1cn(-c2ccc3n(c2=O)CCN(Cc2cccc(C(F)(F)F)c2)C3=O)cn1    < 8 mL/min/kg
Cc1cn(-c2ccc3n(c2=O)CCN(CCOc2ccc(Cl)cc2C(F)(F)F)C3=O)cn1    < 8 mL/min/kg
Cc1cn(-c2ccc3n(c2=O)CCN(CCOc2ccc(F)cc2C(F)(F)F)C3=O)cn1    < 8.8 mL/min/kg

Form: compound = "Cc1cn(-c2ccc3n(c2=O)CCN(CCOc2ccc(C(F)(F)F)cc2)C3=O)cn1" ; CLint scaled = < 9.7 mL/min/kg

The compound "Cc1cn(-c2ccc3n(c2=O)CCN(CCOc2ccccc2Cl)C3=O)cn1" showed CLint scaled equal to < 10.4 mL/min/kg

Documented CLint scaled of "Cc1cn(-c2ccc3c(c2O)CCN(Cc2cccc(C(F)(F)F)c2)C3=O)cn1" : < 8 mL/min/kg
